The measured values listed here are drawn from patent US8835462B2.

System: Mycosphaerella graminicola; Anamorph: Septoria tritici
method-notes: Leaf blotch of wheat (SEPTTR) fungicidal activity on wheat seedlings
Assay type: in vivo
measurement-context: Zymoseptoria tritici, 72 h, 3 Day Curative, read-out: Disease Control SEPTTR 3 DC
measured-parameter: pest or weed control at 100 ppm

Answered cases to consult:
> print(dat)
                                   molecule                             system.tested  recorded.value
1  COc1ccnc(C(=O)N[C@H]2COC[C@H](Cc3ccccc3)[C@@H](OC(=O)C3CC3)[C@H](C)OC2=O)c1O [Compound 31]  Mycosphaerella graminicola; Anamorph: Septoria tritici      80 to 100%
2  COc1ccnc(C(=O)N[C@H]2COC[C@H](Cc3ccccc3)[C@@H](OC3CCCC3)[C@H](C)OC2=O)c1OC(C)=O [Compound 107]  Mycosphaerella graminicola; Anamorph: Septoria tritici      80 to 100%
3  C=C(C)CO[C@@H]1[C@@H](Cc2ccccc2)COC[C@H](NC(=O)c2nccc(OC)c2O)C(=O)O[C@H]1C [Compound 6]  Mycosphaerella graminicola; Anamorph: Septoria tritici        0 to 80%

pest or weed control at 100 ppm reported for this molecule COc1ccnc(C(=O)N[C@H]2COC[C@H](Cc3ccccc3)[C@@H](OCC(C)C)[C@H](C)OC2=O)c1O [Compound 2] : 80 to 100%

====

Parameter pest or weed control at 100 ppm: see the listing below.
Tested on: Puccinia triticina
method-notes: Wheat brown rust (PUCCRT) fungicidal activity on wheat seedlings
Type: in vivo
measurement-context: 72 h, 3 Day Curative, read-out: Disease Control PUCCRT 3 DC

pest or weed control at 100 ppm reported for this compound C=C(C)CO[C@@H]1[C@@H](Cc2ccccc2)COC[C@H](NC(=O)c2nccc(OC)c2O)C(=O)O[C@H]1C : 80 to 100%

pest or weed control at 100 ppm reported for this compound CCCCCO[C@@H]1[C@@H](Cc2ccccc2)COC[C@H](NC(=O)c2nccc(OC)c2O)C(=O)O[C@H]1C : 0 to 80%

pest or weed control at 100 ppm reported for this compound CCCC(C)O[C@@H]1[C@@H](Cc2ccccc2)COC[C@H](NC(=O)c2nccc(OC)c2OCOC(C)=O)C(=O)O[C@H]1C (some centres unmarked) : 80 to 100%

pest or weed control at 100 ppm reported for this compound COc1ccnc(C(=O)N[C@H]2COC[C@H](Cc3ccccc3)[C@@H](OCCCC(F)(F)F)[C@H](C)OC2=O)c1OCOC(C)=O : 80 to 100%

pest or weed control at 100 ppm reported for this compound CCCO[C@@H]1[C@@H](Cc2ccccc2)COC[C@H](NC(=O)c2nccc(OC)c2OCOC(C)=O)C(=O)O[C@H]1C : 80 to 100%

====

Test system: Puccinia triticina
method-notes: Wheat brown rust (PUCCRT) fungicidal activity on wheat seedlings
Type: in vivo
measurement-context: 72 h, 3 Day Curative, read-out: Disease Control PUCCRT 3 DC
measured-parameter: pest or weed control at 100 ppm

pest or weed control at 100 ppm reported for this compound COCCCO[C@@H]1[C@@H](Cc2ccccc2)COC[C@H](NC(=O)c2nccc(OC)c2OCOC(C)=O)C(=O)O[C@H]1C : 80 to 100%

pest or weed control at 100 ppm reported for this compound COc1ccnc(C(=O)N[C@H]2COC[C@H](Cc3ccccc3)[C@@H](OC(=O)c3ccccc3)[C@H](C)OC2=O)c1O : 0 to 80%

pest or weed control at 100 ppm reported for this compound CCCCCO[C@@H]1[C@@H](Cc2ccccc2)COC[C@H](NC(=O)c2nccc(OC)c2OCOC(C)=O)C(=O)O[C@H]1C : 80 to 100%

====

Parameter melting point: see the listing below.

> print(dat)
                            compound.smiles  recorded.value
1  C[C@@H]1OC(=O)[C@@H](N(C(=O)OC(C)(C)C)C(=O)OC(C)(C)C)COC[C@H](Cc2ccccc2)[C@H]1OCCCC(F)(F)F   100 to 102 °C
2  C=C(C)CO[C@@H]1[C@@H](Cc2ccccc2)COC[C@H](NC(=O)c2nccc(OC)c2O)C(=O)O[C@H]1C    96 to 104 °C

melting point reported for this compound C[C@@H]1OC(=O)[C@@H](N(C(=O)OC(C)(C)C)C(=O)OC(C)(C)C)COC[C@H](Cc2ccccc2)[C@H]1OC/C=C/C(F)(F)F : 131 to 133 °C

====

Parameter pest or weed control at 100 ppm: see the listing below.
Test system: Puccinia triticina
method-notes: Wheat brown rust (PUCCRT) fungicidal activity on wheat seedlings
Format: in vivo
measurement-context: 72 h, 3 Day Curative, read-out: Disease Control PUCCRT 3 DC

Tested system Puccinia triticina; pest or weed control at 100 ppm recorded for COc1ccnc(C(=O)N[C@H]2COC[C@H](Cc3ccccc3)[C@@H](OCC(C)C)[C@H](C)OC2=O)c1OCOC(=O)C(C)C was 80 to 100%

Tested system Puccinia triticina; pest or weed control at 100 ppm recorded for COc1ccnc(C(=O)N[C@H]2COC[C@H](Cc3ccccc3)[C@@H](OC(=O)C3CC3)[C@H](C)OC2=O)c1OCOC(C)=O was 80 to 100%

Tested system Puccinia triticina; pest or weed control at 100 ppm recorded for COc1ccnc(C(=O)N[C@H]2COC[C@H](Cc3ccccc3)[C@@H](OC/C=C/C(F)(F)F)[C@H](C)OC2=O)c1OCOC(C)=O was 80 to 100%

Tested system Puccinia triticina; pest or weed control at 100 ppm recorded for COc1ccnc(C(=O)N[C@H]2COC[C@H](Cc3ccccc3)[C@@H](OCCC(=O)N(C)C)[C@H](C)OC2=O)c1O was 0 to 80%
